target: Human Androgen Receptor (Homo sapiens, UniProt P10275); test: Androgen receptor binding assay (hydroxylapatite, [3H]R1881, cytosol of transfected HEK-293 cells); conditions: % RBA=100×IC50 R1881/IC50 compound, transfected cells
Sequence (P10275 whole entry): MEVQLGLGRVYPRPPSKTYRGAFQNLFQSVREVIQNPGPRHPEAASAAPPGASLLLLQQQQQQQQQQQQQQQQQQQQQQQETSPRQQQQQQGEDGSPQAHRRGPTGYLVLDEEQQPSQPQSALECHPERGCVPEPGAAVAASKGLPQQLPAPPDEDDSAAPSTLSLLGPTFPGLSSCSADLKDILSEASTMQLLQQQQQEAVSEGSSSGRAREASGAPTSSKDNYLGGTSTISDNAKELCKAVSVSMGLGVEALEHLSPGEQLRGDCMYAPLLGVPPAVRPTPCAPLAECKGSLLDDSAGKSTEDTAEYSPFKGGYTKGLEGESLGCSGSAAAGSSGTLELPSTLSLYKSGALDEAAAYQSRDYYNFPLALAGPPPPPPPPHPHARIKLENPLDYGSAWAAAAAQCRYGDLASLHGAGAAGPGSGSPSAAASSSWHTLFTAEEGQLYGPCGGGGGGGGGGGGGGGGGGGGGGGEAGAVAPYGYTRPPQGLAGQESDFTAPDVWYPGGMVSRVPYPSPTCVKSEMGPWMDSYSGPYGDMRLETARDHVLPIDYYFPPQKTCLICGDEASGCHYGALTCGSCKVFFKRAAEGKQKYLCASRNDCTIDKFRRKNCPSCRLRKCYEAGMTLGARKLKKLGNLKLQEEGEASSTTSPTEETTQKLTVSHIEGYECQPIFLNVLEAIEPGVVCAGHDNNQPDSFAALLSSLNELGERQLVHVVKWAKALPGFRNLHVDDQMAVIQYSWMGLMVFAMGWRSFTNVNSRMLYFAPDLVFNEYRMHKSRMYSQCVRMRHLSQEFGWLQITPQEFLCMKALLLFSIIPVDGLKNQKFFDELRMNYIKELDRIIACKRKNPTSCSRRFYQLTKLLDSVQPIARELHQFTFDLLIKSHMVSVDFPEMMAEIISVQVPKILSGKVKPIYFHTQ
Measurement type: Androgen Receptor Binding (%) Human RBA R1881 = 100
Number only, in %; omit the unit.

Known results for molecules:
Using the record for CC(C)CNC(C)(C)c1cccc(OCC[C@]23CCC4C(CCC5CC(=O)CC[C@@]54C)C2CC[C@@H]3O)c1 (some centres unmarked) [EM-6534] , state its measured Androgen Receptor Binding (%) Human RBA R1881 = 100.
112

Identify Androgen Receptor Binding (%) Human RBA R1881 = 100 associated with the molecule CCC(NC1CCOCC1)c1cccc(OCC[C@]23CCC4C(CCC5Cc6n[nH]cc6C[C@@]54C)C2CCC3O)c1 (some centres unmarked) [EM-6867]
11.3

State its Androgen Receptor Binding (%) Human RBA R1881 = 100: CC[C@@H](NC1CCCCC1)c1cccc(OCC[C@]23CCC4C(CCC5CC(=O)CC[C@@]54C)C2CCC3O)c1 (some centres unmarked) [EM-7062]
535

Give reported Androgen Receptor Binding (%) Human RBA R1881 = 100 value for CC(C)CNCc1cccc(OCC[C@]23CCC4C(CCC5CC(=O)CC[C@@]54C)C2CC[C@@H]3O)c1 (some centres unmarked) [EM-6307]
99

More entries:
Specify Androgen Receptor Binding (%) Human RBA R1881 = 100 for CCC(NC1CCOCC1)c1cccc(OCC[C@]23CCC4C(CCC5=CC(=O)CC[C@@]54C)C2CCC3(C)O)c1 (some centres unmarked) [EM-6766] and stop.
55.9

Answer with the recorded Androgen Receptor Binding (%) Human RBA R1881 = 100 of CCC(NC1CCOCC1)c1cccc(OCC[C@]23CCC4C(CCC5CC=CC[C@@]54C)C2CCC3O)c1 (some centres unmarked) [EM-6791] only.
50.2

Answer with the recorded Androgen Receptor Binding (%) Human RBA R1881 = 100 for the molecule listed here: CCC(Cc1cccc(OCC[C@]23CCC4C5CCC(=O)C=C5CCC4C2CC[C@@H]3O)c1)NC1CCCC1 (some centres unmarked) [EM-6753]
8.2

Quick one: give measured Androgen Receptor Binding (%) Human RBA R1881 = 100 for O=C1C=C2CCC3C(CC[C@@]4(CCOc5cccc(CN6CCCCC6)c5)C3CC[C@@H]4O)C2CC1 (some centres unmarked) [EM-6564]
3.6

Find the measured Androgen Receptor Binding (%) Human RBA R1881 = 100 of CC[C@@H](NC1CCCCC1)c1cccc(OCC[C@]23CCC4C(CCC5CC(=O)CC[C@@]54C)C2CCC3=O)c1 (some centres unmarked) [EM-7063] and report it.
115

Respond only with Androgen Receptor Binding (%) Human RBA R1881 = 100 recorded for CCN(C1CCCCC1)[C@H](C)c1cccc(OCC[C@]23CCC4C(CCC5C[C@@H](O)CC[C@@]54C)C2CC[C@@H]3O)c1 (some centres unmarked) [EM-6556]
6.9

Report measured Androgen Receptor Binding (%) Human RBA R1881 = 100; entry is COCC(NC1CCCCC1)c1cncc(OCC[C@]23CCC4C(CCC5=CC(=O)CC[C@@]54C)C2CCC3O)c1 (some centres unmarked) [EM-7184]
57

Give Androgen Receptor Binding (%) Human RBA R1881 = 100 for the following molecule: C[C@H](c1cccc(OCC[C@]23CCC4C(CCC5C[C@@H](O)CC[C@@]54C)C2CC[C@@H]3O)c1)N(C)C1CCCCC1 (some centres unmarked) [EM-6555]
4.6

Tell us which Androgen Receptor Binding (%) Human RBA R1881 = 100 value is on record for CC(C)(c1cccc(OCC[C@]23CCC4C(CCC5CC(=O)CC[C@@]54C)C2CC[C@@H]3O)c1)N1CCCCC1 (some centres unmarked) [EM-6740]
42.5

State its Androgen Receptor Binding (%) Human RBA R1881 = 100: CCC(CC)NCc1cc(C#N)cc(OCC[C@]23CCC4C(CCC5CC(=O)CC[C@@]54C)C2CC[C@@H]3O)c1 (some centres unmarked) [EM-6509]
119
